Data origin, for the record: patent US20250332300A1

test system: human HER2 (23-652) (Homo sapiens, UniProt P04626)
protocol details: Surface plasmon resonance (SPR) for assessment of peptide affinity, human HER2
Type: binding
Design: towards human HER2 (23-652) and mouse HER2 (23-653); made in house
condition set: SPR, human HER2 extracellular domain, 25° C., 1:1 binding model; read-out: huHER2-SPR-ONC KD
pKd: −log10 of the molar value. Structures can show the parent of a compound that is named as a salt. Starred links: 1 amine or outer side, 2 acyl side, 3 side chain; linkers in the order of their positions; H or OH if unused. Positions of bridges follow the written chain, without caps; N, C: chain ends. Non-standard residues stand in square brackets, D forms with d. Residues, ends and D or L forms follow the SMILES beside them. Trp(5-OH) = N[C@@H](Cc1c[nH]c2ccc(O)cc12)C(=O)O; NMePhe(4-F) = CN[C@@H](Cc1ccc(F)cc1)C(=O)O; NMehPhe = CN[C@@H](CCc1ccccc1)C(=O)O; Glutaryl = O=C(CCCC(=O)[*:2])[*:1]; Aad = N[C@@H](CCCC(=O)O)C(=O)O; Gly(cPr) = N[C@H](C(=O)O)C1CC1; NMeD = CN[C@@H](CC(=O)O)C(=O)O; NMehCys = CN[C@@H](CCS)C(=O)O; Ahp(2) = CCCCC[C@H](N)C(=O)O; NMeK = CN[C@@H](CCCCN)C(=O)O; NMeDap = CN[C@@H](CN)C(=O)O; 3Amb = NCc1cccc(C(=O)O)c1; NMeS = CN[C@@H](CO)C(=O)O; hCys = N[C@@H](CCS)C(=O)O
Classify as follows. Reported pKd greater than or equal to 9: YES. Reported pKd below: NO.

Use these answered entries as a reference point.
* CC(=O)NCCCC[C@H]1C(=O)N[C@@H](Cc2c[nH]c3ccc(O)cc23)C(=O)N[C@@H](Cc2c[nH]c3ccccc23)C(=O)N[C@@H](C2CC2)C(=O)N(C)[C@H](C(=O)N(C)[C@@H](Cc2ccc(F)cc2)C(N)=O)CCSSCC[C@H](N)C(=O)N[C@@H](Cc2ccc(O)cc2)C(=O)N[C@@H](CO)C(=O)N(C)[C@@H](CCc2ccccc2)C(=O)N1C [Example A55, TFA salt] (H-[hCys]YS[NMehPhe][NMeK](Ac)[Trp(5-OH)]W[Gly(cPr)][NMehCys][NMePhe(4-F)]-NH2; disulfide 1-9) | NO
* CCCCC[C@@H]1NC(=O)[C@H](CCCCNC(C)=O)N(C)C(=O)[C@H](CCc2ccccc2)N(C)C(=O)[C@H](CO)NC(=O)[C@H](Cc2ccc(O)cc2)NC(=O)[C@@H](NC(C)=O)CCCC(=O)NC[C@@H](C(=O)N(C)[C@@H](Cc2ccc(F)cc2)C(N)=O)N(C)C(=O)[C@H](C2CC2)NC(=O)[C@H](Cc2c[nH]c3ccccc23)NC1=O [Example A11] (Ac-[Aad]YS[NMehPhe][NMeK](Ac)[Ahp(2)]W[Gly(cPr)][NMeDap][NMePhe(4-F)]-NH2; lactam 1-9) | NO
* CN1C(=O)[C@H](CO)NC(=O)[C@H](Cc2ccc(O)cc2)NC(=O)c2cccc(c2)CNC(=O)C[C@@H](C(=O)N(C)[C@@H](Cc2ccc(F)cc2)C(N)=O)N(C)C(=O)[C@H](C2CC2)NC(=O)[C@H](Cc2c[nH]c3ccccc23)NC(=O)[C@H](Cc2c[nH]c3ccc(O)cc23)NC(=O)[C@H](CO)N(C)C(=O)[C@@H]1CCc1ccccc1 [Example A24] ([3Amb]YS[NMehPhe][NMeS][Trp(5-OH)]W[Gly(cPr)][NMeD][NMePhe(4-F)]-NH2; lactam N-9) | NO

Q: Form field: pKd at least 9? Entry: CC(=O)N[C@H]1CCCC(=O)NC[C@@H](C(=O)N(C)[C@@H](Cc2ccc(F)cc2)C(=O)N[C@@H](CCCCNC(=O)CN2CCN(CC(=O)O)CCN(CC(=O)O)CCN(CC(=O)O)CC2)C(N)=O)N(C)C(=O)[C@H]([C@H](C)O)NC(=O)[C@H](Cc2c[nH]c3ccccc23)NC(=O)[C@H](Cc2c[nH]c3ccc(O)cc23)NC(=O)[C@H](CCCCNC(=O)CCO)N(C)C(=O)[C@H](CCc2ccccc2)N(C)C(=O)[C@H](CO)NC(=O)[C@H](Cc2ccc(O)cc2)NC1=O [Example C22]
A: YES

Q: Would you say CC(=O)NCCCC[C@H]1C(=O)N[C@@H](Cc2c[nH]c3ccc(O)cc23)C(=O)N[C@@H](Cc2c[nH]c3ccccc23)C(=O)N[C@@H](C2CC2)C(=O)N(C)[C@H](C(=O)N(C)[C@@H](Cc2ccc(F)cc2)C(N)=O)CNC(=O)CCCC(=O)N[C@@H](Cc2ccc(O)cc2)C(=O)N[C@@H](CO)C(=O)N(C)[C@@H](CCc2ccccc2)C(=O)N1C [Example A7] (YS[NMehPhe][NMeK](Ac)[Trp(5-OH)]W[Gly(cPr)][NMeDap][NMePhe(4-F)]-NH2; linker N-8 via Glutaryl) shows pKd at minimum 9?
A: NO

Q: Answer whether pKd of COCCOCCOCCOCCOCCOCCOCCOCCOCCOCCOCCOCCC(=O)N[C@H]1CCCC(=O)NC[C@@H](C(=O)N(C)[C@@H](Cc2ccc(F)cc2)C(=O)N[C@@H](CCCCNC(=O)CN2CCN(CC(=O)O)CCN(CC(=O)O)CC2)C(N)=O)N(C)C(=O)[C@H](C2CC2)NC(=O)[C@H](Cc2c[nH]c3ccccc23)NC(=O)[C@H](Cc2c[nH]c3ccc(O)cc23)NC(=O)[C@H](CCCCNC(C)=O)N(C)C(=O)[C@H](CCc2ccccc2)N(C)C(=O)[C@H](CO)NC(=O)[C@H](Cc2ccc(O)cc2)NC1=O is greater than or equal to 9.
A: YES

Q: Check if pKd >= 9 (inclusive). Item: CC(=O)NCCCC[C@H]1C(=O)N[C@@H](Cc2c[nH]c3ccc(O)cc23)C(=O)N[C@@H](C)C(=O)N[C@@H](C2CC2)C(=O)N(C)[C@H](C(=O)N(C)[C@@H](Cc2ccc(F)cc2)C(=O)N[C@@H](CCCCN)C(N)=O)CNC(=O)CCC[C@H](NC(C)=O)C(=O)N[C@@H](Cc2ccc(O)cc2)C(=O)N[C@@H](CO)C(=O)N(C)[C@@H](CCc2ccccc2)C(=O)N1C [Example A45, TFA salt] (Ac-[Aad]YS[NMehPhe][NMeK](Ac)[Trp(5-OH)]A[Gly(cPr)][NMeDap][NMePhe(4-F)]K-NH2; lactam 1-9)
A: NO
